# credit: patent US20250320252A1

Below, each entry is listed alongside its reported EC50 [nM] of receptor-mediated cAMP synthesis.
Target: T1, human GIP receptor (human, UniProt P48546 22-466)
T1 sequence (looked up): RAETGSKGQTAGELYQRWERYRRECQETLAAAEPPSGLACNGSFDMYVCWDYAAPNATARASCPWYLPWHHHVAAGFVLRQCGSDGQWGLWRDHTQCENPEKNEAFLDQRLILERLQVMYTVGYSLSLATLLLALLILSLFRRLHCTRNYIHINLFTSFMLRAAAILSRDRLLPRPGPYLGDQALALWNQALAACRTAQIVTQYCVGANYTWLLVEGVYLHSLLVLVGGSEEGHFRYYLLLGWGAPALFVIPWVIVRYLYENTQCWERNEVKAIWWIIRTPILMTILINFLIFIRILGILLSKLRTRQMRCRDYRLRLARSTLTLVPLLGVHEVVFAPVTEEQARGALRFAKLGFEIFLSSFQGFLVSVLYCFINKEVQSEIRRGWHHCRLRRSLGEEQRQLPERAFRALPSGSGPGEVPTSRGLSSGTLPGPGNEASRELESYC
Assay: cell-based or functional assay
Bridge positions count the residues as written; N and C are the ends. Square brackets hold non-standard residues; d marks the D form. Ends that are not written are not given here. Nle = CCCC[C@H](N)C(=O)O; K4 = not defined here; K5 = not defined here; Aib = CC(C)(N)C(=O)O
observable: EC50 [nM] of receptor-mediated cAMP synthesis (nM)

[
  {
    "binder": "H-Y[Aib]EGTFT[dS]DY[dS]IYKDKQAA[Nle]KFVAWLLAGGPSSGAPPPS-NH2 (linker 14-21 via K4; not fully specified; reading uncertain) [ZA-43 - K4]",
    "endpoint-unit": "nM",
    "assay-value": 11.3
  },
  {
    "binder": "H-Y[Aib]EGTFHSDYDIYKDKQAA[Aib]KFVQWLLAGGPSSGAPPPS-NH2 (bridge 14-21 via K4; reading uncertain) [ZA-41 - K4]",
    "endpoint-unit": "nM",
    "assay-value": 5.31
  },
  {
    "binder": "H-Y[Aib]EGTFT[dS]DY[dS]IYKDKQAA[Nle]KFVAWLLAGGPSSGAPPPS-NH2 (linker 14-21 via K5; not fully specified; reading uncertain) [ZA-43 - K5]",
    "endpoint-unit": "nM",
    "assay-value": 15.7
  },
  {
    "binder": "Y[Aib]EGTFTSDYSIYKDKQAA[Aib]KFVNWLLAGGPSSGAPPPS-NH2 (bridge 14-21; not fully specified (bridges); also: K4 staple carries PEG-fatty acid) [mCMD307 (2050-K4)]",
    "endpoint-unit": "nM",
    "assay-value": 0.02
  }
]
